- tested-target: Cytochrome P450 1A2 (Homo sapiens) (UniProt P05177)
- Sequence (P05177 whole entry, looked up): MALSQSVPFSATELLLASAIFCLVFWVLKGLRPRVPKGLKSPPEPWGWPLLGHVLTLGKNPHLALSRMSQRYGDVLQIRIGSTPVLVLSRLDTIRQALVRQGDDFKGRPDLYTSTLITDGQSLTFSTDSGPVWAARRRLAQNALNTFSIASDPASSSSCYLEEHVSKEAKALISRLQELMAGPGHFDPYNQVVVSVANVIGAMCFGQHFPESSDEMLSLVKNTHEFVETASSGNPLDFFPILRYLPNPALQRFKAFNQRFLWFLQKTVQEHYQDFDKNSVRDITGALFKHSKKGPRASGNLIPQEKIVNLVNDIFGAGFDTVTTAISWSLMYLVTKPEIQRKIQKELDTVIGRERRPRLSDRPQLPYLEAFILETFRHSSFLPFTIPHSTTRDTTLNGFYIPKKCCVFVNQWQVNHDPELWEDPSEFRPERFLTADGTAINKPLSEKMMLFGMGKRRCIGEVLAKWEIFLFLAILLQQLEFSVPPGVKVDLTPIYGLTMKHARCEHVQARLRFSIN
- method-summary: Cytochrome panel assay with activity outcomes
- conditions: recombinant CYP, pro-luciferin dealkylation, luminescence, p450-cyp1a2; series mostly up to 57.1 µM
Screen size: about 16,000 compounds; about 5,700 (36%) were called active. Roughly 24% stayed inconclusive and do not appear here. Calls follow the shape of the dose curve; as a rule, active = well fitted curve in the direction sought with a large enough effect; inconclusive = small, poorly fitted or top-dose-only effect, or effect the other way; inactive = no such curve, though single readings can be large or run the other way. The list shows a part of the results.
Hi! Could you answer with just one of these? true (1) = active, false (0) = inactive

Some solved entries appear below for comparison.
[[record]]
compound = "O=c1c(-c2ccc(O)cc2)coc2cc(O)cc(O)c12"
label_class = "true (1)"

[[record]]
compound = "Cc1ncc([N+](=O)[O-])n1CC(C)O (stereo unspecified)"
label_class = "false (0)"

[[record]]
compound = "Cc1noc(NS(=O)(=O)c2ccc(N)cc2)c1C"
label_class = "false (0)"

[[record]]
compound = "Cc1noc(NS(=O)(=O)c2ccc(N/C=C/C(=O)c3ccc4c(c3)OCO4)cc2)c1C"
label_class = "true (1)"

[[record]]
compound = "Cc1ncc([N+](=O)[O-])n1CCO"
label_class = "false (0)"


I would be grateful if you could indicate the recorded call for `N/C(=N\OC(=O)Cc1ccc(-c2ccccc2)cc1)c1cccc([N+](=O)[O-])c1` .
true (1)

# iterate: `O=C(Nc1ccccc1[N+](=O)[O-])C1C(c2ccccc2)=C1c1ccccc1`
false (0)

# iterate: `Cc1noc(NS(=O)(=O)c2ccc(N/C=C\C(=O)c3ccc4c(c3)OCO4)cc2)c1C`
false (0)

# iterate: `COc1ccc(-c2coc3cc(OC)cc(O)c3c2=O)cc1`
true (1)

# iterate: `CCOc1cc(C)ccc1OCc1nnc(SCC(=O)c2cccc([N+](=O)[O-])c2)n1CC`
false (0)

# iterate: `Cc1ccc2ncc([N+](=O)[O-])n2c1`
true (1)

###

Each entry below carries its recorded activity, negative = inhibition.
- tested-target: Cytochrome P450 1A2 (Homo sapiens)
- method-summary: Cytochrome panel assay with activity outcomes; as to activity, negative = inhibition: % is scaled to controls: 0 for no effect and ±100 for the full control effect
- conditions: recombinant CYP, pro-luciferin dealkylation, luminescence, p450-cyp1a2; series mostly up to 57.1 µM
The whole screen tested about 16,000 compounds, of which about 5,700 (36%) were called active. About 24% were inconclusive and are not listed. Some of the results follow.

[[record]]
compound_string = "CN(CC(=O)O)CC(=O)O"
measured_quantity = "activity, negative = inhibition"
value_observed = "-5.93% [at 2.29 µM] (inactive)"


Find the recorded activity, negative = inhibition belonging to `C[C@@H]1NC(=O)[C@@H](C)COC(=O)[C@H](C)NC(=O)[C@@H](C)COC1=O` and report it.
0.211% [at 11.4 µM] (inactive)

# iterate: `C[C@@H](N1CCOCC1)[C@@](O)(c1ccccc1)c1ccccn1`
-2.48% [at 2.29 µM] (inactive)

# iterate: `O=C(O)c1cccc2cccc(-c3cccc4cccc(C(=O)O)c34)c12`
-12.3% [at 2.29 µM] (inactive)

# iterate: `CO[C@H]1C[C@@H]2C[C@H](O)C[C@@H](CC(=O)O[C@@H](/C=C\CC(C)C)C[C@@H]3CC[C@H](C)[C@@H](C1)O3)O2`
-2.91% [at 11.4 µM] (inactive)

# iterate: `O=C(O)CCC(O)=C1S(=O)(=O)OCCOS1(=O)=O`
-21.5% [at 11.4 µM] (inactive)
